Documented IC50 across a set of molecules
- SYSTEM: cyclin E/CDK2 enzyme (Homo sapiens)
- Construct: made in house; host or cells: Sf9 insect cells, recombinant baculovirus
- MEASUREMENT NOTES: CDK2 ELISA kinase assay (phospho-Rb ser 795 detection)
- Assay type: biochemical
- ASSAY CONDITIONS: In Vitro Enzyme Assays, read-out: CDK2 IC50

Guide cases for IC50, answers given:
CN1CCN(c2ccc(N/C=C3\C(=O)NC(=O)c4ccc(-n5cccc5)cc43)cc2F)CC1 [Example 328] = > 50 µM
CCCOc1ccc(CN/C=C2\C(=O)NC(=O)c3ccc(NC(=O)c4ccco4)cc32)cc1O [Example 197] = > 50 µM
O=C1NC(=O)c2ccccc2/C1=C/Nc1ccc2ncccc2c1 [Example 8] = > 32 µM
CCCOc1ccc(CN/C=C2\C(=O)NC(=O)c3ccc(I)cc32)cc1OC(=O)CCl [Example 293] = > 50 µM
CCCCOc1ccc(CN/C=C2\C(=O)NC(=O)c3ccc(Br)cc32)cc1O [Example 148] = 31.7 µM
CN1CCN(c2ccc(N/C=C3\C(=O)NC(=O)c4ccc(-c5ccsc5)cc43)cc2)CC1 [Example 108] = > 50 µM

For cyclin E/CDK2 enzyme (Homo sapiens), give IC50 of the listed molecule: CCCOc1ccc(CN/C=C2\C(=O)NC(=O)c3ccc(-c4ccc(F)c(F)c4)cc32)cc1O [Example 194] > 50 µM

# return IC50 for O=C(O)CCCN/C=C1\C(=O)NC(=O)c2ccc(-n3cccc3)cc21 [Example 315] , test system: cyclin E/CDK2 enzyme (Homo sapiens) 31 µM
